Values from patent US7332489B2

# key: entry, value: % IL6 production compare to TNF stimulation of IL6 (100%), HAEC, IL6, @ 5 uM
- Test system: TNF-α induced IL-6
- Test Method Notes: TNF-α-induced IL-6 production determined by IL-6 ELISA
- Assay type: cell-based
- Experimental Parameters: HAEC, TNF stimulated, compound 5 uM (bracketed value)
Observable: % IL6 production compare to TNF stimulation of IL6 (100%), HAEC, IL6, @ 5 uM

>  <Molecule>
CCN1CCCC1CNc1nc(Nc2ccc(OC)c(Cl)c2)nc(NC2CN3CCC2CC3)n1 (centres unmarked)

>  <Measured Value>
60

$$$$
>  <Molecule>
COc1ccc(Nc2nc(NC3CCCCCC3)nc(NC3CCNCC3)n2)cc1Cl

>  <Measured Value>
60

$$$$
>  <Molecule>
COc1ccc(Nc2nc(NC3CCCCCC3)nc(NC3CCN(Cc4ccccc4)CC3)n2)cc1Cl

>  <Measured Value>
55

$$$$

---

- Tested on: cells
- Test Method Notes: Cytotoxicity/Lactate Dehydrogenase assay
- Format: cell-based
- Experimental Parameters: toxic or cause cell death; concentrations (uM) given
- Experimental: An appropriate number of cells are plated in four 96-well plates, one plate for “day 0” and three plates for days 1-3. Cells are treated with at least one compound of the present invention in varying concentrations with and without the apoptosis inducer cisplatin (2 μM) (“+cis” or “-cis”). […] An appropriate number of cells are plated in four 96-well plates, one plate for “day 0” and three plates for days 1-3. […] Activity is easily detected with a color change. […]
Observable: Toxicity

>  <Molecule>
CCN1CCCC1CNc1nc(Nc2cccc3cccnc23)nc(NC2CCCCCC2)n1 (stereo not drawn) [Compound 5]

>  <Measured Value>
toxic

$$$$
>  <Molecule>
CCN1CCCC1CNc1nc(Nc2cnc3ccccc3c2)nc(NC2CCCCCC2)n1 (stereo not drawn) [Compound 3]

>  <Measured Value>
toxic

$$$$
>  <Molecule>
CCN1CCCC1CNc1nc(Nc2ccc(OC)c(F)c2)nc(N2CCCC3CCCCC32)n1 (stereo not drawn) [Compound 59]

>  <Measured Value>
toxic

$$$$

---

- System: TNF-α induced IL-6
- Test Method Notes: TNF-α-induced IL-6 production determined by IL-6 ELISA
- Type: cell-based
- Experimental Parameters: 10 uM

>  <Molecule>
COc1ccc(Nc2nc(NC3CCCCCC3)nc(N3CCN(C)CC3)n2)cc1Cl

>  <Inflammation Data, cell death at 10 uM>
total cell death

$$$$
>  <Molecule>
COc1ccc(Nc2nc(NC3CCCCCC3)nc(NC3CCN(Cc4ccccc4)CC3)n2)cc1F

>  <Inflammation Data, cell death at 10 uM>
total cell death

$$$$
>  <Molecule>
COc1ccc(Nc2nc(NC3CCCCCC3)nc(OCC3CCCN3C)n2)cc1Cl (stereo not drawn)

>  <Inflammation Data, cell death at 10 uM>
total cell death

$$$$

---

- Test system: Human aortic smooth muscle cells
- Test Method Notes: Smooth muscle cell proliferation assay / anti-proliferation assay (perlecan)
- Experimental Parameters: read-out: Activity (note 1); anti-proliferation assay (perlecan)
pIC50: −log10 of the molar value.

>  <Test Smiles>
COc1ccc(Nc2nc(NC3CCCCCC3)nc(N(C)C3CCN(C)CC3)n2)cc1F

>  <pIC50>
5.15 to 5.52

$$$$

---

- Tested on: TNF-α induced IL-6
- Test Method Notes: TNF-α-induced IL-6 production determined by IL-6 ELISA
- Type: cell-based
- Experimental Parameters: Homo sapiens, 24 h, read-out: Inhibition of TNF-induced IL6 production, Table 7, second part, column 1
# key: entry, value: inhibition at 10 µM

>  <Test Smiles>
CN1CCC(N(C)c2nc(Nc3ccc4ccccc4c3)nc(NC3CCCCCC3)n2)CC1

>  <inhibition at 10 µM>
65 to 85%

$$$$
>  <Test Smiles>
COc1ccc(Nc2nc(NC3CCCCCC3)nc(N(C)C3CCN(C)CC3)n2)cc1F

>  <inhibition at 10 µM>
65 to 85%

$$$$
>  <Test Smiles>
CN1CCC(N(C)c2nc(NCCC3OCCO3)nc(Nc3ccc4ccccc4c3)n2)CC1

>  <inhibition at 10 µM>
50 to 65%

$$$$
>  <Test Smiles>
CN1CCC(N(C)c2nc(Nc3ccc4ccccc4c3)nc(NC3CC3)n2)CC1

>  <inhibition at 10 µM>
50 to 65%

$$$$
